target: Chromobox protein homolog 7 (Homo sapiens) (UniProt O95931); assay: blockers of CBX7 binding to H3K27me3 peptide – biochemical, AlphaScreen, primary screen (AID 1224903); settings: AlphaScreen His6-CBX7 / biotin-H3K27me3 peptide binding, stronger effect = lower value
Sequence (O95931 whole entry, looked up): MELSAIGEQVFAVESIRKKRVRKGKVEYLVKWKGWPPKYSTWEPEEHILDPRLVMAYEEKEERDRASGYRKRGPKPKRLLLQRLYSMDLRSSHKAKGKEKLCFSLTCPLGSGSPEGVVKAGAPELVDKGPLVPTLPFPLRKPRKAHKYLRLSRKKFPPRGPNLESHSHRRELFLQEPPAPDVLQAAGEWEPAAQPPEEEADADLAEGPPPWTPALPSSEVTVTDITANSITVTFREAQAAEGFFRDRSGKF
In all, about 66,000 compounds went through this assay and about 720 (1.1%) were called active. This is one part of a sample in which actives are shown more often than they occur.
readoutKind: normalised signal (fraction of DMSO)
One number for each entry.

For the 4 molecules below, give their normalised signal (fraction of DMSO) values.
1. COc1ccccc1NC(=O)c1c(NCc2cccs2)sc2c1CCCC2
2. CCCCc1ccc(NC(=O)CSc2nccn2-c2cccc(C)c2C)cc1
3. CCCCN(C)S(=O)(=O)c1ccc(C(=O)Nc2nnc(C)o2)cc1
4. COc1cccc(-n2ccnc2SCC(=O)Nc2ccc(Br)cc2)c1

0.467
0.742
0.00344
0.458

For the 5 molecules below, give their normalised signal (fraction of DMSO) values.
1. CCOc1ccc(CNC(=O)C(C)N2C(=O)COc3ccc(C)cc32)cc1 (stereo not drawn)
2. CCN(C(=O)Cc1nc(N)n[nH]1)C1(C(=O)Nc2ccccc2)CCCCC1
3. COc1ccc(-c2nnc(NC(=O)c3ccc(S(=O)(=O)N4CCC(C)CC4)cc3)o2)cc1
4. CCOC(=O)c1sc(NC(=O)c2ccc(OCC)cc2)nc1-c1ccccc1
5. COc1ccc(CNc2nc(-c3ccccc3)cc(C(F)(F)F)n2)cc1

1. 0.421
2. 0.201
3. 0.796
4. 0.993
5. 1.28

For the 5 molecules below, give their normalised signal (fraction of DMSO) values.
1. O=C1c2ccccc2-c2onc3c(N4CCCC4)ccc1c23
2. CCN1CCN(CCCNC(=O)c2ccc3c(c2)N(Cc2ccc(F)cc2)CCS3)CC1
3. CC(=O)Nc1ncc2c(n1)CC(c1cccs1)CC2=O (stereo not drawn)
4. O=C(NCc1ccccc1)C1CCN(c2nc3ccccc3o2)CC1
5. CCN(CC)S(=O)(=O)c1ccc(C(=O)Nc2nnc(-c3cc(OC)cc(OC)c3)o2)cc1

0.367
0.904
0.997
1.02
0.885

For the 6 molecules below, give their normalised signal (fraction of DMSO) values.
1. CCNc1cc(Nc2ccccc2)c2c3c(onc13)-c1ccccc1C2=O
2. CC1CCCCN1S(=O)(=O)c1ccc(C(=O)Nc2nnc(-c3cccs3)o2)cc1 (stereo not drawn)
3. COc1ccc(Cn2c(=O)c3cccnc3n(Cc3ccc(C)cc3)c2=O)cc1
4. Fc1ccc(-c2cc(C(F)(F)F)nc(NCc3ccc(Cl)cc3)n2)cc1
5. O=C(NCCCc1nc2ccccc2n1Cc1ccccc1F)c1ccc(F)cc1
6. CN(C)S(=O)(=O)c1ccc(C(=O)Nc2nnc(-c3ccccc3Cl)o2)cc1

[0.816, 0.92, 1.11, 1.25, 0.957, 0.145]

For the 7 molecules below, give their normalised signal (fraction of DMSO) values.
1. Cc1ccc(-c2nnc(Nc3ccc(C(=O)N(C)C)cc3)c3ccccc23)cc1S(N)(=O)=O
2. Cc1cc(Nc2ccc(C)c(C)c2)n2ncnc2n1
3. Cc1ccc(-c2nnc(Nc3ccc(OCC(N)=O)cc3)c3ccccc23)cc1S(=O)(=O)NC(C)C
4. CCCCn1c(C2CC(=O)N(c3ccc(CC)cc3)C2)nc2ccccc21 (stereo not drawn)
5. Cc1nc2sccn2c1-c1csc(Nc2ccc(S(N)(=O)=O)cc2)n1
6. COc1ccccc1NC(=O)c1c(NCc2ccncc2)sc2c1CCCC2
7. COc1ccc(-n2ccnc2SCC(=O)Nc2ccc(C)cc2)cc1

1. 1.08
2. 1.04
3. 0.723
4. 0.96
5. 1.07
6. 0.583
7. 0.62

For the 5 molecules below, give their normalised signal (fraction of DMSO) values.
1. CCCCNC(=O)CN1C(=O)COc2ccccc21
2. CCOC(=O)c1ccc(NC(=O)c2c(NCc3cccs3)sc3c2CCCC3)cc1
3. COc1ccc(NC2CC(=O)N(Cc3ccccc3)C2=O)cc1 (stereo not drawn)
4. CCOc1ccc(-n2ccnc2SCC(=O)Nc2ccc(C)cc2C)cc1
5. O=C(CN1C(=O)COc2ccccc21)NCCN1CCc2ccccc2C1

0.475
0.674
1.18
0.963
1.06

For the 8 molecules below, give their normalised signal (fraction of DMSO) values.
1. COc1ccc(C2CC(=O)N(CC(=O)Nc3ccc(C)c(Cl)c3)c3ccccc3S2)cc1 (stereo not drawn)
2. COc1ccc(-c2nnc(NC(=O)c3ccc(S(=O)(=O)N4CC(C)OC(C)C4)cc3)o2)c(OC)c1 (stereo not drawn)
3. CCCN1CCN(CCCNC(=O)CN2C(=O)COc3ccccc32)CC1
4. Cc1cccc(N2CCN(C(=O)C3CCC(Cn4c(=O)[nH]c5ccsc5c4=O)CC3)CC2C)c1 (stereo not drawn)
5. Cc1ccc(C2CC(c3ccc(C)cc3)n3ncnc3N2)cc1 (stereo not drawn)
6. CCC1CCCCN1S(=O)(=O)c1ccc(C(=O)Nc2nnc(COC)o2)cc1 (stereo not drawn)
7. CCN(C(=O)Cc1nc(N)n[nH]1)C1(C(=O)Nc2ccc(C)cc2)CCCCC1
8. O=C(NC1CCCC1)c1nn2c(C(F)(F)F)cc(-c3ccc(F)cc3)nc2c1Cl

1. 0.931
2. 0.629
3. 1.01
4. 1.11
5. 1.02
6. 0.727
7. 0.791
8. 1.08

For the 3 molecules below, give their normalised signal (fraction of DMSO) values.
1. CCc1cc(C)cc(OCC(O)Cn2cnc3ccccc32)c1 (stereo not drawn)
2. CCN(CCCNC(=O)C(C)N1C(=O)COc2ccc(C)cc21)c1ccccc1 (stereo not drawn)
3. CCOc1ccc(-c2nnc(Nc3ccc(C(N)=O)cc3)c3ccccc23)cc1

1: 0.88; 2: 0.631; 3: 0.436

All figures here come from PubChem BioAssay AID1224903.
